Tested on: EKVX NSCLC
EXPERIMENTAL PROTOCOL: NCI tumour cell line growth inhibition, 48 h
ATTRIBUTE MEASURED: TGI

// worked examples, TGI included
Briefly, TGI measured for "CCOC(=O)c1cc(Br)c(-c2onc(C)c2Br)n1C" : 85.6 µM

Briefly, TGI measured for "Cn1c(=N)n[n+]([O-])c2ccccc21" : 18.3 µM

Briefly, TGI measured for "O=C(O)[C@@H](NS(=O)(=O)c1ccc([N+](=O)[O-])cc1)c1ccccc1" : > 100 µM

Briefly, TGI measured for CC1C(O)Oc2cc3c(cc2C1c1ccccc1O)OCO3 (stereo unspecified) : > 100 µM

Briefly, TGI measured for COC(=O)C1=C(C)N(NC(N)=O)C(C)(O)C12CCOC2=O (stereo unspecified) : > 100 µM

Further cases:
Briefly, TGI measured for "COc1ccc(N=CN(C)C)c(C)c1" : > 100 µM

====

System: COLO 205 colon
EXPERIMENTAL PROTOCOL: NCI tumour cell line growth inhibition, 48 h; in the data active = GI50 below about 0.43 µM; inactive = the rest
Use one of these outcomes when replying: 1 for active, 0 for inactive

// below: answered compounds
Please let me know the test result on file for "C[CH2][Sn]([CH2]C)([O]C(=O)c1ccc(F)cc1)[O][Sn]([CH2]C)([CH2]C)[O]C(=O)c1ccc(F)cc1" .
0

Please let me know the test result on file for "COc1ccc2nc(-c3cc4c([nH]c5ccccc54)c(-c4ccc(F)c(F)c4)n3)[nH]c2c1" .
0

Please let me know the test result on file for "C=C(C)[C@@H]1CC[C@]2(C(N)=O)CC[C@]3(C)[C@H](CC[C@@H]4[C@@]5(C)C/C(=C/c6cccnc6)[C@H](O)C(C)(C)[C@@H]5CC[C@]43C)[C@@H]12" .
0

Please let me know the test result on file for "COc1cnc2c(c1)C(=O)c1c-2n(CCCNC(C)C)c(=O)c2cc([N+](=O)[O-])ccc12" .
1

Please let me know the test result on file for "COc1ccc2nc3ccccc3c(NCc3ccc(C)cc3)c2c1" .
0

Please let me know the test result on file for "CC#CC(=O)N1CC[C@@H](n2c(=O)n(-c3ccc(Oc4ccccc4)cc3)c3c(N)ncnc32)C1" .
0

Please let me know the test result on file for Nc1c2ccccc2nc2ccccc12 (tested in a mixture with another compound) .
0

Further cases:
Please let me know the test result on file for "COc1ccc2c(c1)C(=O)c1c-2c(NCCN(C)C)nc2ccccc12" .
0

====

Tested on: BT-549 breast
EXPERIMENTAL PROTOCOL: NCI tumour cell line growth inhibition, 48 h
Tag: Met if measured TGI is not below 30 µM, Not met if it is.

Threshold query (TGI >= 30 µM) on "Cc1cc(N(CCOS(C)(=O)=O)CCOS(C)(=O)=O)ccc1C=Nc1ccc(-c2csc(-c3ccc(Br)cc3)n2)cc1"
Met

Further cases:
Threshold query (TGI >= 30 µM) on "CCOC(=O)c1c(CN2CCCC2)n(-c2ccccc2)c2cc(Br)c(OC)cc12"
Met

Threshold query (TGI >= 30 µM) on CC1c2cc(c3c(c2O)CN([C@@H](C)C2CCCCC2)CO3)C(C)c2cc(c3c(c2O)CN([C@@H](C)C2CCCCC2)CO3)C(C)c2cc(c3c(c2O)CN([C@@H](C)C2CCCCC2)CO3)C(C)c2cc1c1c(c2O)CN([C@@H](C)C2CCCCC2)CO1 (some centres not stated)
Not met

Threshold query (TGI >= 30 µM) on "O=C(O)c1ccc(NNC(=O)c2cccc3c(=O)c4ccccc4[nH]c23)cc1"
Met

Threshold query (TGI >= 30 µM) on CCOP(=O)(OCC)C(Nc1ccc(C(=O)O)cc1)c1ccc(C(Nc2ccc(C(=O)O)cc2)P(=O)(OCC)OCC)cc1 (configuration not stated)
Met

Threshold query (TGI >= 30 µM) on "Cn1c(=O)c2c(nc(NCCNc3nc4c(c(=O)n(C)c(=O)n4C)n3C)n2C)n(C)c1=O"
Met

====

Test system: UACC-62 melanoma
EXPERIMENTAL PROTOCOL: NCI tumour cell line growth inhibition, 48 h
ATTRIBUTE MEASURED: GI50

// worked examples, GI50 included
GET /values?item= "C=C1C(=O)O[C@H]2[C@H]1CC/C(COC(=O)NCc1cc(OC)cc(OC)c1)=C\CC[C@@]1(C)O[C@@H]21" &system= UACC-62 melanoma returns GI50: 0.663 µM

GET /values?item= "C[CH2][Sn]([CH2]C)([O]C(=O)c1ccc(F)cc1)[O][Sn]([CH2]C)([CH2]C)[O]C(=O)c1ccc(F)cc1" &system= UACC-62 melanoma returns GI50: > 100 µM

GET /values?item= "c1ccc2c3c(ccc2c1)-c1c(ccc2c(NCCCCN4CCCCC4)cccc12)C3" &system= UACC-62 melanoma returns GI50: 1.79 µM

Further cases:
GET /values?item= "CC(=O)[O][Bi]([c]1ccccc1)[c]1ccccc1" &system= UACC-62 melanoma returns GI50: 11.6 µM

GET /values?item= COc1cc2c(cc1OCCCN1CCN(c3ncnc4ccccc34)CC1)N=CC1CCCN1C2=O (configuration not stated) &system= UACC-62 melanoma returns GI50: 0.018 µM

====

Quick reference for GI50 among some compounds
Tested on: RXF 393 renal
EXPERIMENTAL PROTOCOL: NCI tumour cell line growth inhibition, 48 h

// worked examples, GI50 included
Briefly, GI50 measured for "COc1ccc2nc(-c3cc4c([nH]c5ccccc54)c(-c4ccc(F)c(F)c4)n3)[nH]c2c1" : 3460 nM

Briefly, GI50 measured for "Oc1c(CN2CCN(c3ccccc3F)CC2)cc(Br)c2cccnc12" : 2050 nM

Briefly, GI50 measured for CC(CN)[C@@H]1CC[C@]2(CO)CC[C@]3(C)[C@H](CC[C@@H]4[C@@]5(C)CCC(N)C(C)(C)[C@@H]5CC[C@]43C)[C@@H]12 (stereo partly specified) : 1550 nM

Briefly, GI50 measured for "Nc1ccc(-c2ccc(-c3nc4cc(Cl)c(Cl)cc4[nH]3)cc2)cc1" : 5710 nM

Further cases:
Briefly, GI50 measured for "CC[CH2][Sn]([CH2]CC)([O]C(=O)Cc1ccc(F)cc1)[O][Sn]([CH2]CC)([CH2]CC)[O]C(=O)Cc1ccc(F)cc1" : 28.6 nM

Briefly, GI50 measured for "C=C(C)[C@@H]1CC[C@]2(C(N)=O)CC[C@]3(C)[C@H](CC[C@@H]4[C@@]5(C)C/C(=C/c6cccnc6)[C@H](O)C(C)(C)[C@@H]5CC[C@]43C)[C@@H]12" : 3610 nM

====

Tested on: HT29 colon
EXPERIMENTAL PROTOCOL: NCI tumour cell line growth inhibition, 48 h; in the data active means GI50 below about 0.43 µM; inactive means the rest
Use one of these outcomes when replying: t (active), f (inactive)

// below: answered molecules
Please let me know the test result on file for "COC1=C(OC)[C@]2(OC)c3c(O)c(OC)c4c(c3O[C@@]23O[C@@H](c2ccccc2)CC=C3C1=O)[C@@H](O)C[C@H](c1ccccc1)O4" .
t

Please let me know the test result on file for "N#Cc1nn(-c2cc(=O)[nH]c3ccc(Br)cc23)c(N)c1C#N" .
f

Please let me know the test result on file for "Nc1nc(-c2ccccc2)cc(-c2ccc(Cl)cc2)c1-c1nc2ccccc2o1" .
f

Please let me know the test result on file for "COc1cc(/C=C2\C[C@H]3[C@@H]4CC=C5C[C@@H](OC(C)=O)CC[C@]5(C)[C@H]4CC[C@]3(C)[C@H]2OC(C)=O)ccc1OCCN1CCCCC1" .
f

Please let me know the test result on file for Nc1c2ccccc2nc2ccccc12 (tested in a mixture with another compound) .
f

Further cases:
Please let me know the test result on file for "COc1ccc2nc(-c3cc4c([nH]c5ccccc54)c(-c4ccc(F)c(F)c4)n3)[nH]c2c1" .
f

Please let me know the test result on file for Cc1ccc(C2=NN(c3ccc(S(N)(=O)=O)cc3)C(c3cn(-c4ccccc4)nc3-c3ccccc3)C2)cc1 (centres undefined) .
f

Please let me know the test result on file for "Cc1c(-c2nnc(-c3cc(Cl)c(Cl)cc3Cl)o2)nnn1-c1ccnc2c(C(F)(F)F)cccc12" .
f

Please let me know the test result on file for Cc1nc2sc(C(=O)Nc3cccc(Br)c3)c(N)c2cc1C(O)c1ccccc1 (centres undefined) .
t

====

System: 786-0 renal
EXPERIMENTAL PROTOCOL: NCI tumour cell line growth inhibition, 48 h
ATTRIBUTE MEASURED: TGI (µM)
The reply should contain only the number, in µM.

// worked examples, TGI included
Briefly, TGI measured for CC1c2cc(c3c(c2O)CN([C@@H](C)C2CCCCC2)CO3)C(C)c2cc(c3c(c2O)CN([C@@H](C)C2CCCCC2)CO3)C(C)c2cc(c3c(c2O)CN([C@@H](C)C2CCCCC2)CO3)C(C)c2cc1c1c(c2O)CN([C@@H](C)C2CCCCC2)CO1 (stereo not given in full) : 2.4

Briefly, TGI measured for "C=C1C(=O)O[C@H]2[C@H]1CC/C(COC(=O)NCc1cc(OC)cc(OC)c1)=C\CC[C@@]1(C)O[C@@H]21" : 3.45

Briefly, TGI measured for Cc1nc2sc(C(=O)Nc3cccc(Br)c3)c(N)c2cc1C(O)c1ccccc1 (stereo not given) : 18.4

Briefly, TGI measured for "O=[N+]([O-])c1ccc(C(=Nc2ccccc2)SSC(=Nc2ccccc2)c2ccc([N+](=O)[O-])o2)o1" : 4.08

Briefly, TGI measured for "Nc1nc(-c2ccccc2)cc(-c2ccc(Cl)cc2)c1-c1nc2ccccc2o1" : 22.3

Briefly, TGI measured for COC1=CC(=O)C2C(C1=O)C(c1ccc(OC)c(OC)c1)[C@H]2C (stereo not given in full) : 31.9

Further cases:
Briefly, TGI measured for "O=S(=O)(Nc1ccccn1)c1ccc(N=Nc2ccc(O)c3ncccc23)cc1" : 13.6

Briefly, TGI measured for "O=C(NCCCCCCNC(=O)OCc1ccc2c(Cl)cc(Cl)c(O)c2n1)OCc1ccc2c(Cl)cc(Cl)c(O)c2n1" : 2.67
